- STUDY_TARGET: human TRPV3 (Homo sapiens)
- Construct: expressed in transfected cells
- Sequence (Q8NET8 whole entry): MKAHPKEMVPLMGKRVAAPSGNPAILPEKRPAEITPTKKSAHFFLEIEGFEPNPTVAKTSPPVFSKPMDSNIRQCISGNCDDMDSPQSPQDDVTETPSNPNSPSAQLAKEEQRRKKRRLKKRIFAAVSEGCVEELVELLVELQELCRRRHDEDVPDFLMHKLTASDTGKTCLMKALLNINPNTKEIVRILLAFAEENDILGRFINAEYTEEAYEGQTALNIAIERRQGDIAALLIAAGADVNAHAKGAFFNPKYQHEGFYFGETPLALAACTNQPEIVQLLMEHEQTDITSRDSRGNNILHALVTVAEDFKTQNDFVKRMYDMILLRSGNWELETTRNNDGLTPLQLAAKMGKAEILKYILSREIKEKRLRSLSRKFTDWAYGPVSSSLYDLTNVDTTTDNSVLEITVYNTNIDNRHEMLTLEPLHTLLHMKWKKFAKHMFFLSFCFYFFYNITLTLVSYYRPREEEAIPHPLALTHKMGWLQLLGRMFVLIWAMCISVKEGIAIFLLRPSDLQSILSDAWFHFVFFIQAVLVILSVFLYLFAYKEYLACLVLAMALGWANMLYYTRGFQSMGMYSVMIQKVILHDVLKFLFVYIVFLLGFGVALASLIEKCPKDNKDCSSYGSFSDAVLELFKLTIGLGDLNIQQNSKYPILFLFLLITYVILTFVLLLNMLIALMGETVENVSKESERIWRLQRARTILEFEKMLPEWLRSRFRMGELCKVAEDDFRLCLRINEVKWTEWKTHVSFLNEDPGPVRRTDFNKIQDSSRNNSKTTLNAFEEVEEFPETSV
- EXPERIMENT_NOTES: In vitro antagonism of recombinant human TRPV3 activation (FLIPR Tetra calcium assay)
- Assay type: cell-based
- MEASUREMENT_SETUP: HEK293 cells stably expressing human TRPV3; agonist 2-APB at 80 μM; actual measured value shown parenthetically; in most cases average of at least two runs; read-out: IC50
Flag rule - IC50 less than 3 µM flags class 1; the remaining entries get class 0.

Please review the entries below; each comes with its answer.
# COMPOUND, DISCRETE_LABEL
records = [
    ("O[C@H](c1ccccn1)[C@]1(c2ccc(Cl)c(Cl)c2)CCO1 [Example 136]", "class 1"),
    ("CN1CC(c2ccc(C(F)(F)F)cc2)(C(O)c2ccccn2)C1 (stereo not shown) [Example 155]", "class 0"),
    ("O/N=C(\\c1ccccn1)C1(c2ccc(Cl)c(Cl)c2)CCC1 [Example 230]", "class 0"),
    ("OC(c1ccccn1)C1(c2ccncc2)CCC1 (stereo not shown) [Example 21]", "class 0"),
    ("O[C@H](c1ccccn1)C1(c2ccc(Cl)c(Cl)c2)CC1 [Example 231]", "class 1"),
]

# input IC50 strictly < 3 µM for this compound? OC(c1ccccn1)C1(c2ccc(Cl)cc2)CCOCC1 (stereo not shown) [Example 64]
# output class 1

# input Below 3 µM on IC50? Entry OC(c1ccccn1)C1(C2CCCC2)CCC1 (stereo not shown) [Example 163]
# output class 0

# input Hello, is IC50 of the following compound strictly smaller than 3 µM? OC1CC(c2ccc(C(F)(F)F)cc2)([C@H](O)c2ccccn2)C1 (mixture of isomers) [Example 166]
# output class 0

# input Consider the compound Nc1cccnc1C(O)C1(c2ccc(C(F)(F)F)cc2)CCC1 (stereo not shown) [Example 127] . Is its IC50 strictly less than 3 µM?
# output class 0

# input Does this compound meet the criterion IC50 < 3 µM? Cc1ccc(C2(C(O)c3ccccn3)CCC2)cc1 (stereo not shown) [Example 9]
# output class 1

# input Field: below-cutoff. Rule: recorded IC50 strictly less than 3 µM. Subject: OC(c1ccccn1)C1(c2cccc(Oc3ccccc3)c2)CCC1 (stereo not shown) [Example 23]
# output class 1

# input Check if IC50 falls below 3 µM for OC1CC(c2ccc(Cl)c(Cl)c2)(C(O)c2ccccn2)C1 (single isomer, unassigned) [Example 247] .
# output class 0
